- System: guinea pig atrial muscle
- Assay Name: In vitro guinea pig atrial muscle contractile force measurement (Test Method I)
- Assay type: cell-based
- Reported Conditions: Cavia porcellus; calculated concentration required to increase the contractile force by 50% from the control level; isolated left atria, 30° C., mean of at least three tissues
- Method: Kaplan, "Strategy for the Discovery and Development of a Positive Inotropic Agent", Pharmacology and Therapeutics, Vol. 16 (1982), pp. 303-330. […] The ligature was tied to a Grass FT-103 force-displacement transducer, and responses were measured in grams of developed tension with a Grass Model 7 polygraph (Grass Instrument Co., Quincy, MA). […] Responsiveness to isoproterenol was also assessed at the end of the experiment unless other positive drug responses were obtained near the end of the experiment. […]
Where a name gives a salt, the structure may show the parent alone.
Experimental Readout: EC50

Query Cc1cn(C)c(-c2ccc(-c3ccc(Br)cc3)o2)n1 [Example 34, Hydrochloride Hydrate] yields EC50 of > 100 µM

Query CC(C)c1ccc(-c2ccc(-c3ncc[nH]3)o2)cc1 [Example 20, Hydrochloride] yields EC50 of 6.8 µM

Query Cn1ccnc1-c1ccc(-c2ccc(Br)cc2)o1 [Example 22] yields EC50 of > 100 µM
